# target-or-test-system: Gal(b1-3)[Fuc(a1-4)]GlcNAc(b1-3)Gal(b1-4)[Fuc(a1-3)]GlcNAc
# assay-details: glycan array binding signal (z-score within array); higher = stronger binding
# condition-context: glycan notation: IUPAC condensed, linker removed
Many of the other results were omitted from the sample, so the strongest signals are more common in it than they were.
property: glycan array binding signal (z-score)

{"binder": "AT1G73650(15) (Arabidopsis thaliana), F4HRY1 (protein) MGTVLDSHFLALTAIVTVIYQFIFFVITALFKFDQVTDFAGSTNFVILAVLTLVLKASWHFRQIVLTLLVVVWGLRLGIFLLMETRILQWGEDRRFDEQRGNIVRLIIFWTLQAVWVWTVSLPLTLVNASDGGGSLKPADVIGWTMETWVFGFLIEAAADQQKLSFKNSPENRGKWCDVGVWKYSRHPNYFGEMETLLWWGIFVAASPVLEGAEYLVIFGPLFLTLLLLFVSGIPLLEASADKKHGNSGAYRSYKKTTSPLILFPRGVYGNLPGWFKTVFLFEFPFYSRNLPQEGRLQNSKEKEVKDD", "property": "glycan array binding signal (z-score)", "recorded-value": -0.287}
{"binder": "Mermaid2 (Stilbonema majum) (protein) MGSSHHHHHHSSGLVPRGSHMAASGWLRSPQGTVVKLYRRSLSWSKADEFCKDVDGRLVVDRTADMHLFLIKNVLKEKKSRVWVGLRRTAPHSRTWIWSDGTRQNEDDLNTNLWLRDEPNDAAGEEECALFMYSPWEKAWGLNDYLCRGGCRSYQFICEKGIR", "property": "glycan array binding signal (z-score)", "recorded-value": -0.152}
{"binder": "SLLPI (Mus musculus), Q9D9X8 (protein) MGICMSMYTQVLVPVDADGDHHILWSRFYERWGSCFNPCAGLVNCLPPHSSALYLCHRMEARSRAPRRQLCPPGITWLALAYLLSCLLASSKAKVFSRCELAKEMHDFGLDGYRGYNLADWVCLAYYTSGFNTNAVDHEADGSTNNGIFQISSRRWCRTLASNGPNLCRIYCTDLLNNDLKDSIVCAMKIVQEPLGLGYWEAWRHHCQGRDLSDWVDGCDF", "property": "glycan array binding signal (z-score)", "recorded-value": -0.236}
{"binder": "Calsepa (Calystegia sepium), P93114 (protein) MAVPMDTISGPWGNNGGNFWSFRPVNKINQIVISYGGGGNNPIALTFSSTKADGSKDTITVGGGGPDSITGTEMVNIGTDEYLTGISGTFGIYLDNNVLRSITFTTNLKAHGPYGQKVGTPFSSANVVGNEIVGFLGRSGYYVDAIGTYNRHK", "property": "glycan array binding signal (z-score)", "recorded-value": -0.253}
{"binder": "LSECtin (Homo sapiens), Q6UXB4 (protein) MEQESALRELRERVTQGLAEAGRGREDVRTELFRALEAVRLQNNSCEPCPTSWLSFEGSCYFFSVPKTTWAAAQDHCADASAHLVIVGGLDEQGFLTRNTRGRGYWLGLRAVRHLGKVQGYQWVDGVSLSFSHWNQGEPNDAWGRENCVMMLHTGLWNDAPCDSEKDGWICEKKAQLLTPPSALEPRPLQHVVSWGLLTSLAPGADCQRVFSSSSTAAESQKHLAQHSPVQPSAWALGPPCRPHPNSTHADPT", "property": "glycan array binding signal (z-score)", "recorded-value": -0.241}
{"binder": "Gal 7 (Homo sapiens) (protein) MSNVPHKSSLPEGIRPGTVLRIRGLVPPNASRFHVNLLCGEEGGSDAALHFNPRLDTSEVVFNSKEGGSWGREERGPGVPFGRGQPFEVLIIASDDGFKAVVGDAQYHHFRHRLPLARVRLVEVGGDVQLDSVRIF", "property": "glycan array binding signal (z-score)", "recorded-value": -0.289}
{"binder": "Gal 2 (Homo sapiens), P05162 (protein) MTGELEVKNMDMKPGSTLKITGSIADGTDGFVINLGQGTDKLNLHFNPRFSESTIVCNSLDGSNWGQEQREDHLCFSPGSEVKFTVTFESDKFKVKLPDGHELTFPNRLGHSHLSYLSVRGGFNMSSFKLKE", "property": "glycan array binding signal (z-score)", "recorded-value": -0.269}
{"binder": "FBG5 (Homo sapiens), Q8NI29 (protein) MGASVSRGRAARVPAPEPEPEEALDLSQLPPELLLVVLSHVPPRTLLGRCRQVCRGWRALVDGQALWLLILARDHGATGRALLHLARSCQSPARNARPCPLGRFCARRPIGRNLIRNPCGQEGLRKWMVQHGGDGWVVEENRTTVPGAPSQTCFVTSFSWCCKKQVLDLEEEGLWPELLDSGRIEICVSDWWGARHDSGCMYRLLVQLLDANQTVLDKFSAVPDPIPQWNNNACLHVTHVFSNIKMGVRFVSFEHRGQDTQFWAGHYGARVTNSSVIVRVRLS", "property": "glycan array binding signal (z-score)", "recorded-value": -0.217}
{"binder": "Gal 8 (Homo sapiens) (protein) MLSLNNLQNIIYNPVIPYVGTIPDQLDPGTLIVICGHVPSDADRFQVDLQNGSSVKPRADVAFHFNPRFKRAGCIVCNTLINEKWGREEITYDTPFKREKSFEIVIMVLKDKFQVAVNGKHTLLYGHRIGPEKIDTLGIYGKVNIHSIGFSFSSDLQSTQASSLELTEISRENVPKSGTPQLQTVSPSWDLQGHGSETFCSVLWTRVFLEIAFCRPIGLTVASFQSLPFAARLNTPMGPGRTVVVKGEVNANAKSFNVDLLAGKSKDIALHLNPRLNIKAFVRNSFLQESWGEEERNITSFPFSPGMYFEMIIYCDVREFKVAVNGVHSLEYKHRFKELSSIDTLEINGDIHLLEVRSW", "property": "glycan array binding signal (z-score)", "recorded-value": -0.39}
{"binder": "CALR truncated at D342 (Homo sapiens) (protein) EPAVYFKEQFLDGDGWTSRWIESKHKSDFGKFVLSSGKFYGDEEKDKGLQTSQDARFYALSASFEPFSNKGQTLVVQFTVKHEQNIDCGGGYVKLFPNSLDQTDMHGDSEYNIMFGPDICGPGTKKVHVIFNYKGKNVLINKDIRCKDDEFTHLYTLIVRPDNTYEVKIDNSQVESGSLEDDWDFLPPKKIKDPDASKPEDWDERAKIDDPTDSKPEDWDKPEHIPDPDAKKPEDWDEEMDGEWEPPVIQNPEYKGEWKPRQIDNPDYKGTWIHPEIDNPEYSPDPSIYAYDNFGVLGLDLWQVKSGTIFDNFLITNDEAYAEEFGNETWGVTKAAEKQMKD", "property": "glycan array binding signal (z-score)", "recorded-value": 4.2}
{"binder": "SGC, Q9M345 (protein) QNLNFTYNGFHPPLTDISLQGLATVTPNGLLKLTNTSVQKTGHAFCTERIRFKDSQNGNVSSFSTTFVFAIHSQIPTLSGHGIAFVVAPTLGLPFALPSQYIGLFNISNNGNDTNHIFAVEFDTIQSSEFGDPNDNHVGIDLNGLRSANYSTAGYRDDHDKFQNLSLISRKRIQVWIDYDNRSHRIDVTVAPFDSDKPRKPLVSYVRDLSSILLEDMYVGFSSATGSVLSEHFLVGWSFRLNGEAPMLSLSKLPKLPRFEPRRIS", "property": "glycan array binding signal (z-score)", "recorded-value": -0.357}
